protocolDescription: Half life in Sprague-Dawley rat at 1 mg/kg, iv
Assay type: ADME, organism-based
Design: dose 1 mg/kg, route intravenous
reportedConditions: in vivo
observable: half-life (min)

INSERT INTO measurements (molsmiles, unitsymbol, numericresult) VALUES
  ('CCC(C)(C)C(=O)Nc1cc(C)c(C)c(S(=O)(=O)N2CCOCC2)c1', 'min', 42);

====

Test system: Liver microsomes
protocolDescription: Metabolic stability in human liver microsomes
Type: ADME, Microsome
observable: Stability (%)

INSERT INTO results (molsmiles, unitsymbol, numericresult) VALUES
  ('CCC(C)(C)C(=O)Nc1cc(C)c(C)c(S(=O)(=O)N2CCCCC2)c1', '%', 0),
  ('Cc1cc(NC(=O)C(C)(C)C)cc(S(=O)(=O)N2CCOCC2)c1C', '%', 52),
  ('CCC(C)(C)C(=O)Nc1cc2c(c(S(=O)(=O)N3CCOCC3)c1)CCC2', '%', 10);
